Molecular target: SOX (alkaline exonuclease) (Kaposi's sarcoma-associated herpesvirus …, UniProt P88925 1-486)
Experiment: fluorescence polarization anisotropy; FPA with 3'FAM oligonucleotides, single site binding fit (GraphPad PRISM6); buffer, pH and temperature as in cited Bagneris et al., not in material
Conditions: protein: recombinant; label: 3'FAM; bulge
assay endpoint: Kd (µM)

> print(dat)
                                     binder  assay.endpoint  reported
1  HBB58 (structured_RNA) RNA: AGGUGAAGGCUCAUGGCAAGAAAGUGCUCGGUGCCUUUAGUGAUGGCCUGGCUCACCU              Kd        42
